This section presents compounds with their documented log10 half-life values.
- assay.name: clinical
- conditions.used: human, in vivo, iv, t1/2
Record value = log10 of half-life given in min.

Known log10 half-life results, listed for orientation:
compound | result.value
CN(C)CCc1c[nH]c2ccc(C[C@H]3COC(=O)N3)cc12 | 2.33
COc1cccc(OC)c1C(=O)N[C@@H]1C(=O)N2[C@@H]1SC(C)(C)[C@@H]2C(=O)O | 1.58

## Input Quick check: log10 half-life of CCOc1ccccc1OC(c1ccccc1)C1CNCCO1 (stereo not drawn) ?
## Output 2.78

## Input Param item = `NCCCC[C@H](NC(=O)[C@@H](Cc1cc(Br)c(O)c(Br)c1)NC(=O)N1CCC(N2Cc3ccccc3NC2=O)CC1)C(=O)N1CCN(c2ccncc2)CC1` ; retrieve measured log10 half-life.
## Output 2.18

## Input Find the recorded log10 half-life belonging to `COc1ccc(Cc2nccc3cc(OC)c(OC)cc23)cc1OC` and report it.
## Output 2.03

## Input What measured log10 half-life goes with `CCOc1ccc(NC(C)=O)cc1` ?
## Output 1.74

## Input Recorded log10 half-life for Cc1cc(-n2cccc2)c(S(C)(=O)=O)cc1C(=O)NC(=N)N [ENIPORIDE] , please?
## Output 2.12

## Input Entry O=C(NCCNCC(O)COc1ccc(O)cc1)N1CCOCC1 (stereo not drawn) has what log10 half-life?
## Output 2.66

## Input Consider the compound `Cc1ncsc1CCCl` and give its measured log10 half-life.
## Output 2.43

## Input Find the recorded log10 half-life belonging to O=C1Nc2ccc(Cl)cc2C(c2ccccc2Cl)=NC1O (stereo not drawn) and report it.
## Output 3.01

## Input I would be grateful if you could share the reported log10 half-life for `C[C@](N)(Cc1ccc(O)c(O)c1)C(=O)O` .
## Output 2.55

## Input If you can, please state the reported log10 half-life value of `CCCc1cc(=O)[nH]c(=S)[nH]1` .
## Output 1.89

## Input Item CCCC(C)C1(CC)C(=O)NC(=S)NC1=O (stereo not drawn) has what recorded log10 half-life?
## Output 2.08

## Input Sample `CN[C@@H](C)Cc1ccccc1` — what was its log10 half-life?
## Output 2.86
